Measured TGI values are reported for all entries that follow.
Tested on: MALME-3M melanoma
Assay: NCI tumour cell line growth inhibition, 48 h

These recorded examples may help you get a feel for the data.
[[record]]
compound = "O=C(Nc1ccc(Cl)c(Cl)c1)C(=O)Nn1c(=S)[nH]c2ccccc2c1=O"
readout_value = "> 100 µM"

[[record]]
compound = "CC(=O)c1c2c(cc3c1CC1(Cc4cc5c(cc4C1=O)CCC5)C3)CCC2 (stereo unspecified)"
readout_value = "> 100 µM"

[[record]]
compound = "COc1cc(COC(=O)N2CCCCC2C(=O)O)c([N+](=O)[O-])cc1OC (stereo unspecified)"
readout_value = "> 100 µM"


## Input What TGI value was documented for this compound, O=C(O)Cn1nnc2c(=O)[nH][nH]c(=O)c21 ?
## Output > 100 µM

## Input # repeat for NC(=O)NC(CC(=O)O)C(=O)O (stereo unspecified)
## Output > 100 µM

## Input # repeat for Nc1ncnc2c1ncn2[C@@H]1C[C@H]1CO
## Output > 100 µM

## Input # repeat for COc1ccc(-c2cn(-c3ccc(Cl)cc3)c(=S)[nH]2)cc1OC
## Output > 100 µM

## Input # repeat for COc1ccc(/C=C/C(=O)c2nc3ccccc3[nH]2)cc1
## Output 61.7 µM

## Input # repeat for Cc1ccc(-c2c(C#N)c(-c3ccc([N+](=O)[O-])cc3)c(C#N)c(=O)n2NS(=O)(=O)c2ccc(C)cc2)cc1
## Output > 100 µM

## Input # repeat for CN(C)c1ccc(/C=C/C(=O)c2ccccc2)cc1Br
## Output 43 µM

## Input # repeat for O=c1c2c(sc3ccccc13)NCN(CCc1ccccc1)C2
## Output > 100 µM

====

Measured TGI values are reported for all entries that follow.
Tested on: XF 498 CNS
Assay: NCI tumour cell line growth inhibition, 48 h
Please state the figure in µM; there is no need to write the unit.

These recorded examples may help you get a feel for the data.
[[record]]
compound = "Cn1c(=O)nc2n(-c3ccc(F)cc3)c3ccccc3nc-2c1=O"
readout_value = 34.3

[[record]]
compound = "COc1ccc2nc3cc(Cl)ccc3c(NCCC(=O)OCC(O)C(O)C(O[C@H](C)C(=O)NC(C)C(=O)NC(CCC(N)=O)C(=O)OCc3ccccc3)C(C=O)NC(C)=O)c2c1 (some centres not stated)"
readout_value = 33.5

[[record]]
compound = "C=C1C(=O)OC2C[C@H](C)C3CC(=O)C(C)=C3CC12 (some centres not stated)"
readout_value = 30.1

[[record]]
compound = "COc1cc(C2c3cc4c(cc3OC3(O)COC(=O)C23)OCO4)cc(OC)c1OC (configuration not stated)"
readout_value = 96.7


## Input What TGI value was documented for this compound, CN(C)c1ccc(/C=C/C(=O)c2ccccc2)cc1Br ?
## Output 31.2

====

Measured TGI values are reported for all entries that follow.
Tested on: EKVX NSCLC
Test: NCI tumour cell line growth inhibition, 48 h

[[record]]
compound = "COc1ccc(NC(=O)CC/C(CC(=O)c2ccccc2Cl)=N\\Nc2nnc(C)n2N)cc1"
measured_endpoint = "TGI"
readout_value = "> 100 µM"

[[record]]
compound = "O=c1n(CCCN2CCN(c3cccc(Cl)c3)CC2)nc2n1-c1ccc3ccccc3c1SC2"
measured_endpoint = "TGI"
readout_value = "> 100 µM"

[[record]]
compound = "O=C1C=C(c2c(-c3ccccc3)[nH]c3ccccc23)C(=O)N1c1ccccc1"
measured_endpoint = "TGI"
readout_value = "38.5 µM"

[[record]]
compound = "O=C(O)CNC(=O)c1ccccc1O"
measured_endpoint = "TGI"
readout_value = "> 100 µM"

[[record]]
compound = "C[As](C)Sc1ccnc(S[As](C)C)n1"
measured_endpoint = "TGI"
readout_value = "35.8 µM"

[[record]]
compound = "O=c1c2cc(Br)ccc2[nH]c(=S)n1-c1ccc(Br)cc1"
measured_endpoint = "TGI"
readout_value = "> 100 µM"

[[record]]
compound = "COc1ccc(C2=NN(C(=O)c3ccccc3)C(O)(c3cc(F)c(Cl)cc3Cl)C2)cc1OC (centres undefined)"
measured_endpoint = "TGI"
readout_value = "> 100 µM"

[[record]]
compound = "CC(C)(C)c1ccc(-c2nc3ccccc3c(=O)o2)cc1"
measured_endpoint = "TGI"
readout_value = "> 100 µM"

[[record]]
compound = "Cc1c(/C=N/NC(=O)c2ccccc2)c(=O)n(-c2ccccc2)n1C"
measured_endpoint = "TGI"
readout_value = "> 100 µM"

[[record]]
compound = "CC(=O)Nc1ccc(C2=N/C(=C\\c3ccc(Cl)c(Cl)c3)C(=O)O2)cc1"
measured_endpoint = "TGI"
readout_value = "> 100 µM"


## Input What TGI value was documented for this compound, CC(=O)O[C@H]1C(=O)[C@@]2(C)[C@H]([C@H](OC(=O)c3ccccc3)[C@]3(O)C[C@H](OC(=O)[C@H](O)[C@@H](NC(=O)c4ccccc4)C4CCCCC4)C(C)=C1C3(C)C)[C@]1(OC(C)=O)CO[C@@H]1C[C@@H]2O ?
## Output > 100 µM

## Input # repeat for O=C1NCC2(CCN(Cc3ccccc3)CC2)N1
## Output > 100 µM

## Input # repeat for c1ccc2c(c1)ccc1ncccc12
## Output > 100 µM

## Input # repeat for COc1ccc2nc3cc(Cl)ccc3c(NCCC(=O)OCC(O)C(O)C(O[C@H](C)C(=O)NC(C)C(=O)NC(CCC(N)=O)C(=O)OCc3ccccc3)C(C=O)NC(C)=O)c2c1 (some centres undefined)
## Output 36.9 µM

## Input # repeat for CCCCOP(=O)(OCCCC)/C(C#N)=C/c1ccc(C)o1
## Output > 100 µM

## Input # repeat for COC(=O)CCC(=O)CC(=O)C(=O)Nc1ccc(F)cc1
## Output > 100 µM

## Input # repeat for CN(C)C(=S)N/N=C\C(=N/NC(=S)N(C)C)c1ccccc1
## Output > 100 µM

## Input # repeat for Cc1ccc(C2(C)NC(=S)N(NC(N)=S)C2=S)cc1 (centres undefined)
## Output > 100 µM

## Input # repeat for COC1OCC(OS(=O)(=O)c2ccc(C)cc2)C(OC(=O)c2ccccc2)C1OC(=O)c1ccccc1 (centres undefined)
## Output > 100 µM

## Input # repeat for CCc1ccc(CCC(=O)O)nc1
## Output > 100 µM

## Input # repeat for Cn1c(=O)oc2cc(C(=S)N3CCC(Cc4ccccc4)CC3)ccc21
## Output > 100 µM

## Input # repeat for COc1cc2c(c(N)c1OC)C(=O)/C(=C/c1cc(C)c(O)c(C)c1)C2
## Output > 100 µM

## Input # repeat for COc1nc(/C=N/NC(N)=S)nc(OC)n1
## Output > 100 µM

## Input # repeat for Fc1ccc(-c2ncn(C3CCNCC3)c2-c2ccnc(Oc3ccccc3)n2)cc1
## Output > 25 µM

## Input # repeat for Cc1cc2c(cc1C)N1Cc3c(ccc(C)c3C)N(C2)C1 (tested in a mixture with another compound)
## Output > 100 µM

## Input # repeat for O=C(N/N=C/c1coc2ccc(Cl)cc2c1=O)c1ccncc1
## Output > 100 µM

## Input # repeat for OC(c1ccsc1)c1cc2ccccc2s1 (centres undefined)
## Output > 10 µM

## Input # repeat for C[C@]12CCC3[C@@H](C[C@H]4OC(=O)[C@@]35CCC(=O)C=C45)C1CCC2=O (some centres undefined)
## Output > 100 µM

## Input # repeat for NC(=O)Cc1ncn(-c2ccccc2)n1
## Output > 100 µM

## Input # repeat for CCc1ccc(CCC(=O)Nc2ncc(Cc3cc(Cl)ccc3Cl)s2)o1
## Output > 50 µM

## Input # repeat for CC1=Nc2nc3ccccc3n2C(C)(C)C1
## Output > 100 µM

## Input # repeat for COc1cc(C2SCC(=O)N2c2ccc(-c3ccc(-n4c(-c5ccccc5)nc5ccccc5c4=O)cc3)cc2)ccc1O (centres undefined)
## Output > 100 µM

## Input # repeat for CCOC(=O)C1(Cc2ccccc2)Cc2cc3c(cc2C1=O)CCC3 (centres undefined)
## Output > 100 µM

## Input # repeat for C[C@@H](C(=O)O)c1ccc(-c2ccccc2)c(F)c1
## Output > 100 µM
